Test system: human skeletal cells (SKM)
TEST SUMMARY: Protective effect on cell death induced by maitotoxin on human skeletal cells (SKM), WST-1
Type: cell-based
STATED CONDITIONS: after incubation for 3 hours in the presence of maitotoxin; read-out: EC50 (concentration which protects 50% of the cells from cell death)
QUANTITY NAME: pEC50
In simple prose, pEC50 is minus the logarithm base ten of a concentration in moles per litre.

What does the record list as pEC50 for C[C@H]1C[C@@H]2[C@H]([C@@H](O)C[C@@]3(C)[C@H]2CC[C@]3(O)C(=O)CO)[C@@]2(C)C=CC(=O)C=C12 ?
3.45

Where do the numbers come from? From patent US20090018120A1.
